B1: TPR 5TU (parent)
chain: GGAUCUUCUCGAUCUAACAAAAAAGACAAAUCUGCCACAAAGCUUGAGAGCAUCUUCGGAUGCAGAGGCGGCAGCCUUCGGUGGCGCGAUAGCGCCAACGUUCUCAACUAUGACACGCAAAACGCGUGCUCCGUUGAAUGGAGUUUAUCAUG

Variants of: B1
experimentSummary: polymerase ribozyme fitness, log enrichment relative to wild type (log ratio); higher = more active; in vitro selection for triplet polymerase activity
This sample holds only a part of the variants without activity.
polymerase ribozyme fitness (log ratio) values for the variants below.
valueType: polymerase ribozyme fitness (log ratio)

mutations	resultValue
A19C A28U C75A C85U G92U	≤ -4.2
C5G U55A G70C C85A C96U U151G	≤ -4.2
A26U C75U U148G	≤ -4.2
C85G C87G A98U A137G U144C	≤ -4.2
A41G A89G G92U G100A G117C G133A G143U	≤ -4.2
A41U G84C C103G	≤ -4.2
G59C A60C C87G	≤ -4.2
C36A C95U C125G U127C	≤ -4.2
C18G A23C G34A A66U G84U U135A	≤ -4.2
A16U U53A A66G C87A	≤ -4.2
C105A C125A	-3.83
U78G G88U	≤ -4.2
C38U C85G	-3.44
C85U A120G	-1.65
G59A C85U C149G	-3.59
